// data source = PubChem BioAssay

Tested on: wheat germ agglutinin (Triticum aestivum), Alexa647-labelled
Experiment: wheat germ agglutinin binders on compound microarrays, profiling panel, artefact control for SMM control-protein annotation, biochemical, small-molecule microarray, 635/667 nm fluorescence (AID 1140);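 also: score merges 667 nm feature emission with signal to noise over triplicate slides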
Conditions: WGA-A647 binding, 635 nm fluorescence, higher = more signal
Give composite z-score for every item shown.
The response must contain the number and no unit.

Request: Lab note: need composite z-score for CO[C@H]1COC(=O)[C@H](CCSC)NC(=O)CC=C[C@@H](C)[C@H](OC)COC(=O)[C@@H](OCc2ccccc2)C=C[C@@H]1C on wheat germ agglutinin (Triticum aestivum), Alexa647-labelled, anyone have it?
Response: -0.36

Request: Any idea what composite z-score came out for CO[C@@H]1C=CCC(=O)N[C@@H](C)C(=O)OC[C@@H](NS(=O)(=O)c2ccc(C)cc2)[C@H](C)C=CCC(=O)OC[C@H]1C on wheat germ agglutinin (Triticum aestivum), Alexa647-labelled?
Response: 0.326

Request: API: value(readout=composite z-score, system=wheat germ agglutinin (Triticum aestivum), Alexa647-labelled) for record CC(C)[C@@H](OCc1ccccc1)[C@H](C)CON=C1[C@H]2CCn3c(=O)n(-c4ccccc4)c(=O)n3[C@H]2[C@H](O)[C@@H]2O[C@H]12
Response: 0.192

Request: Find composite z-score (wheat germ agglutinin (Triticum aestivum), Alexa647-labelled) for the entry CC(=O)OC[C@H]1O[C@H](CC=NO[C@@H](C)c2cc(-c3c(C)cc(C)cc3C)no2)C=C[C@@H]1OC(C)=O
Response: 0.229

Request: Please state recorded composite z-score (tested on wheat germ agglutinin (Triticum aestivum), Alexa647-labelled) of COc1ccc(COC(=O)NN=C2C[C@@H](O)[C@@H](O)[C@@H]3[C@@H]4C(=O)N([C@@H](C)c5ccccc5)C(=O)[C@@H]4CC[C@H]23)cc1
Response: 0.271

Request: What measured composite z-score is associated with COC(=O)[C@@H]1CC[C@H](C)[C@@H](c2ccc(Br)cc2)N1C[C@H](O)CN=[N+]=[N-] on wheat germ agglutinin (Triticum aestivum), Alexa647-labelled?
Response: 0.162

Request: Give wheat germ agglutinin (Triticum aestivum), Alexa647-labelled composite z-score for CCOC(=O)CCN1C(=O)[C@H]2[C@H]3[C@H](O)[C@H](O)CC(=NOCC=C(C)CCC=C(C)C)[C@@H]3CC[C@H]2C1=O
Response: 0.132
